Biological target: Proto-oncogene tyrosine-protein kinase Src (Homo sapiens, UniProt P12931)
Sequence (P12931 2-536 limits assumed): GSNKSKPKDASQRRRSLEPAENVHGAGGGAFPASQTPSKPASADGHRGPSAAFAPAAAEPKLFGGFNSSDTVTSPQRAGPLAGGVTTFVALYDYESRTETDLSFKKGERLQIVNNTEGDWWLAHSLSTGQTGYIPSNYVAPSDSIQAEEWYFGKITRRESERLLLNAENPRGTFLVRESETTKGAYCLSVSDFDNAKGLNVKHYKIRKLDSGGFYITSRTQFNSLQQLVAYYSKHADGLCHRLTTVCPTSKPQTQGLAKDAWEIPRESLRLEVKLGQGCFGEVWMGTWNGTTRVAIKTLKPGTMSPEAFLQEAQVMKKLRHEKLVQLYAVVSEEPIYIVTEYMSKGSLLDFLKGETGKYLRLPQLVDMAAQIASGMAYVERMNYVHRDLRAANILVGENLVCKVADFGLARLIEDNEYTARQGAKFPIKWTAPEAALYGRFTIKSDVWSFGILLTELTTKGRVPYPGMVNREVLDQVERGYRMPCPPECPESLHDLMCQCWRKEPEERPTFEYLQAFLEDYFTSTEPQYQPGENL
Assay: Inhibition of c-Src (unknown origin) after 10 mins by fluorimetric assay
PROPERTY LABEL: Ki
// unit must come after the numeric part

A selection of reference data follows.
>>> measured_result("Nc1ncnc2c1c(-c1ccc(Cl)cc1)nn2-c1cccc(-c2cnnn2CCCCCC(=O)NO)c1")
"138 nM"
>>> measured_result("Nc1ncnc2c1c(-c1ccc(Cl)cc1)nn2-c1cccc(-c2cnnn2CCCCCCC(=O)NO)c1")
"190 nM"

Next, consider the following compound.
Task: // query Ki value for entry "Nc1ncnc2c1c(-c1ccc(Cl)cc1)nn2-c1cccc(-c2cnnn2Cc2ccc(/C=C/C(=O)NO)cc2)c1"
Output: 4300 nM

====

Molecular target: Histone deacetylase 4 (Homo sapiens, UniProt P56524)
Sequence (P56524 whole entry): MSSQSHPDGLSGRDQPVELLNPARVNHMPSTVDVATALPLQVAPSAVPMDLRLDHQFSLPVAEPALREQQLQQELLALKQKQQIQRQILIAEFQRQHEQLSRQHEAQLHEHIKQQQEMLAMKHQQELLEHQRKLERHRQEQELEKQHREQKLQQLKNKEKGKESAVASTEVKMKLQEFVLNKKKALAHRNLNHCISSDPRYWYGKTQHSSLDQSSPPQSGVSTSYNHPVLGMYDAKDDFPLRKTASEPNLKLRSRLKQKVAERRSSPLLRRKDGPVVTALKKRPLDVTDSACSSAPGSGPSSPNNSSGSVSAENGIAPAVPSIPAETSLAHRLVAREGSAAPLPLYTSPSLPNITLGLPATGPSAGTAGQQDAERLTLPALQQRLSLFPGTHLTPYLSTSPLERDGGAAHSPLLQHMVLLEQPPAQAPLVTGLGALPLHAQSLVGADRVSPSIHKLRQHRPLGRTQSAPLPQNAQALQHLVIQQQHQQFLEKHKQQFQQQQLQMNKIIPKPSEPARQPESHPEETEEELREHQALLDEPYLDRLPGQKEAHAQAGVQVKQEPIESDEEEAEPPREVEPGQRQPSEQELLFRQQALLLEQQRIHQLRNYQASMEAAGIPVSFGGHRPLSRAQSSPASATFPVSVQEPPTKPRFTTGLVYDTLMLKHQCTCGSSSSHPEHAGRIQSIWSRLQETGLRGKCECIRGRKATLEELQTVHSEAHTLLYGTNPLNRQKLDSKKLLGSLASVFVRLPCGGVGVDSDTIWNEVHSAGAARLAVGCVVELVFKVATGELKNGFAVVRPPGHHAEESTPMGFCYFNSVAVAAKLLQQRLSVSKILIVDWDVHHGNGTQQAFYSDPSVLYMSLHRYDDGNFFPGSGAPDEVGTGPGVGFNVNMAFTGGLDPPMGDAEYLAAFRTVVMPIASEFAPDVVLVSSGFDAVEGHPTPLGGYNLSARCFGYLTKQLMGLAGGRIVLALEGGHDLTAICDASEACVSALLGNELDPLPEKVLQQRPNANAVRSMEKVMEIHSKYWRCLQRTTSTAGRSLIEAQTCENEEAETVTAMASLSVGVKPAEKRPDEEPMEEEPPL
PROPERTY LABEL: IC50 (µM)
One number for each entry, in µM.

Task: // query IC50 value for entry "Nc1ncnc2c1c(-c1ccc(Cl)cc1)nn2-c1cccc(-c2cnnn2CCCCCC(=O)NO)c1"
Output: 3.98

====

Target: Histone deacetylase 1 (Homo sapiens)
Sequence (Q13547 whole entry): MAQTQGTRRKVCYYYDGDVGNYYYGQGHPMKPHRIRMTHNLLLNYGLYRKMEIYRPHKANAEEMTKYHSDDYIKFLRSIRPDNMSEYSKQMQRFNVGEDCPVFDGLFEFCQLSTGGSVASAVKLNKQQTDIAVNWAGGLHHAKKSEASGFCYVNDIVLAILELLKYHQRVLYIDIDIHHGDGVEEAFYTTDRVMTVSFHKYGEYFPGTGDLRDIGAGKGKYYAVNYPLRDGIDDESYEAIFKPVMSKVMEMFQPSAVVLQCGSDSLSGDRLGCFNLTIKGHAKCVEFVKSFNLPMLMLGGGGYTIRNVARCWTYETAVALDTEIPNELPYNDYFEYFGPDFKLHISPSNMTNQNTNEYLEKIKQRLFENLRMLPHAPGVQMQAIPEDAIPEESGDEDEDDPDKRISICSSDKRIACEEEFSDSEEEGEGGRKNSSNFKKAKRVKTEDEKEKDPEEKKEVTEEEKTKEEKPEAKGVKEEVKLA
Experiment: Inhibition of human recombinant HDAC1 using Ac-Leu-Gly-Lys(Ac)AMCA as substrate after 30 mins by fluorescence assay
PROPERTY LABEL: Ki (nM)
Numbers only, in nM.

>>> measured_result("Nc1ncnc2c1c(-c1ccc(Cl)cc1)nn2-c1cccc(-c2cnnn2Cc2ccc(/C=C/C(=O)NO)cc2)c1")
35

Give Ki for each of the items listed below.
1. Nc1ncnc2c1c(-c1ccc(Cl)cc1)nn2-c1cccc(-c2cnnn2CCCCCCCC(=O)NO)c1
2. Nc1ncnc2c1c(-c1ccc(Cl)cc1)nn2-c1cccc(-c2cnnn2CCCCCC(=O)NO)c1
3. Nc1ncnc2c1c(-c1ccc(Cl)cc1)nn2-c1cccc(-c2cnnn2Cc2cccc(/C=C/C(=O)NO)c2)c1
4. Nc1ncnc2c1c(-c1ccc(Cl)cc1)nn2-c1cccc(-c2cnnn2CCCCCCC(=O)NO)c1

Output:
1. 9.8
2. 0.26
3. 23
4. 0.82

====

Target: Tyrosine-protein kinase HCK (Homo sapiens, UniProt P08631)
Sequence (P08631 whole entry): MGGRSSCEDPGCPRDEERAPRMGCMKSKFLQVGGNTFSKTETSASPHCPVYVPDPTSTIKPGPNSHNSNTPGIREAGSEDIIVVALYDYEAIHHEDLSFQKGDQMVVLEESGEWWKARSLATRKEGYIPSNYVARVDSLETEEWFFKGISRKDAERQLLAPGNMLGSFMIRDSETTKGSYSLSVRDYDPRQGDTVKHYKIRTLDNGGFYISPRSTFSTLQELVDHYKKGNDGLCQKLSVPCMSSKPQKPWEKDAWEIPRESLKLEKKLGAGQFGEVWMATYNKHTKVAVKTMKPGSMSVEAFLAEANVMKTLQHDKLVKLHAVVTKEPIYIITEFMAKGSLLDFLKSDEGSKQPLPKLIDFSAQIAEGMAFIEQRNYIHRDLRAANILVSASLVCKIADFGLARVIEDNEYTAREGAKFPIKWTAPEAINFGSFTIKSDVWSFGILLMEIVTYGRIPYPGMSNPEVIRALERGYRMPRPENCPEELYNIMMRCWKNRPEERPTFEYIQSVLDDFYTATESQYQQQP
PROPERTY LABEL: Ki
// unit must come after the numeric part

Task: Tyrosine-protein kinase HCK (Homo sapiens, UniProt P08631) / Ki / "Nc1ncnc2c1c(-c1ccc(Cl)cc1)nn2-c1cccc(-c2cnnn2CCCCCC(=O)NO)c1" : value?
Output: 504 nM

====

Please respond with reported GI50 for every item in the list.
Tested on: HMEC
Assay: Cytotoxicity against human HMEC after 72 hrs by WST1 assay
Type: cell-based
One number for each entry, in µM.

A selection of reference data follows.
>>> measured_result("O=C(CCCCCCC(=O)Nc1ccccc1)NO")
5.8
>>> measured_result("Nc1ncnc2c1c(-c1ccc(Cl)cc1)nn2-c1cccc(-c2cnnn2CCCCCC(=O)NO)c1")
4.7
>>> measured_result("Nc1ncnc2c1c(-c1ccc(Cl)cc1)nn2-c1cccc(-c2cnnn2Cc2cccc(-c3ccccc3)c2)c1")
4.3

Next, consider the following molecule.
Task: // query GI50 value for entry "Cc1nc(Nc2ncc(C(=O)Nc3c(C)cccc3Cl)s2)cc(N2CCN(CCO)CC2)n1"
Output: 1.8
